- TARGET_DESC: noradrenaline (NA) uptake, synaptosomes from rat hypothalamus (Rattus norvegicus)
- Construct: Synaptosomes for use in obtaining in vitro uptake data were prepared from hypothalamus or striatum by gently homogenizing the tissue
- Sequence (Q63380 1-617): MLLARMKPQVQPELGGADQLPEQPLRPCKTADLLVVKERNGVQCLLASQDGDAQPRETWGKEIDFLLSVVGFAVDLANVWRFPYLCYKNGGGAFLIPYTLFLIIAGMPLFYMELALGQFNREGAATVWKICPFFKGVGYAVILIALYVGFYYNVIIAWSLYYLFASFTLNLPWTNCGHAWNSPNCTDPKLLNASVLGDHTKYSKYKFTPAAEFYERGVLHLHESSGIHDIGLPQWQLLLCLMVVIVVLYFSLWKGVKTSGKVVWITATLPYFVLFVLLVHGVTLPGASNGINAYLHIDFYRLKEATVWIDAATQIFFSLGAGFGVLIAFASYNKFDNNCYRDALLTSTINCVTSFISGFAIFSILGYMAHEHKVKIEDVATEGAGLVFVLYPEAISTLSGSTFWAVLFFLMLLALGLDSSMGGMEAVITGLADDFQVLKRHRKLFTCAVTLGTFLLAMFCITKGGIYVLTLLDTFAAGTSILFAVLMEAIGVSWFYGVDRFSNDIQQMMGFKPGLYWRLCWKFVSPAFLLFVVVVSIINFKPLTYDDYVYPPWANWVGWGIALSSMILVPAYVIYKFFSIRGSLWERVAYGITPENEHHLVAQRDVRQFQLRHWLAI
- PROCEDURE_SUMMARY: In vitro synaptosomal [3H]-noradrenaline uptake
- ASSAY_CONDITIONS: rat hypothalamus synaptosomes
ENDPOINT_NAME: IC50 (nM)
Express your answer in nM, writing the number without its unit.

GET IC50 | system: noradrenaline (NA) uptake, synaptosomes from rat hypothalamus (Rattus norvegicus) | item: CC(NC(C)(C)C)C(=O)c1cccc(Cl)c1.Cl (racemic) [Bupropion, hydrochloride]
2200

* * *

- TARGET_DESC: serotonin uptake, synaptosomes from rat hypothalamus (Rattus norvegicus, UniProt P31652)
- Sequence (P31652 whole entry): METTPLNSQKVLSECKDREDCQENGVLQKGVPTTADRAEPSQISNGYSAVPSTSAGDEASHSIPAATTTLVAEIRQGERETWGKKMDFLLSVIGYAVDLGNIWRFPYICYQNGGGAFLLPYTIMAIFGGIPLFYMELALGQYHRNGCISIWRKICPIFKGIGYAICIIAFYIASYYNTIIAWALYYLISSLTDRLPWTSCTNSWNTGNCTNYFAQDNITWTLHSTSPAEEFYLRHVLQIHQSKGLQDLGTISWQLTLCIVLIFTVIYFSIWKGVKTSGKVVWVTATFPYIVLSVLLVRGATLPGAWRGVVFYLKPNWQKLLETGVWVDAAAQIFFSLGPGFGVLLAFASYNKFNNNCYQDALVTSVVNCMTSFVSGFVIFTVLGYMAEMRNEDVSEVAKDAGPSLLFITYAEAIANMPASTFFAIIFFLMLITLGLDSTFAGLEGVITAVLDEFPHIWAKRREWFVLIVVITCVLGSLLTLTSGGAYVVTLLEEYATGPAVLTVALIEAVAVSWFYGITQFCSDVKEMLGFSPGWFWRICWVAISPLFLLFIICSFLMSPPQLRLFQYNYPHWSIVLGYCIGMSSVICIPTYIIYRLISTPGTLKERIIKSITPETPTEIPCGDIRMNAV
- PROCEDURE_SUMMARY: biochemical
pIC50: −log10 of the molar value.
ENDPOINT_NAME: pIC50

Please list pIC50 recorded for the compound C[C@@H]1NC(C)(C)CO[C@@]1(O)c1cccc(Cl)c1 (single isomer, unassigned)
< 4.52

Indicate the recorded pIC50 value for this compound: C[C@H]1NC(C)(C)CO[C@]1(O)c1cccc(Cl)c1 (single isomer, unassigned)
< 4.00
